Quick list: pEC50 per entry.
TARGET OR TEST SYSTEM: F508delCFTR (Homo sapiens, UniProt P13569, DEL508-508)
Construct: expressed in transfected cells; host or cells: CFBE41o- human lung-derived epithelial cells (CFBE4lo-F508delCFTR-HRP), doxycycline-inducible
Sequence (P13569 with tags, fused parts or gaps DEL508-508): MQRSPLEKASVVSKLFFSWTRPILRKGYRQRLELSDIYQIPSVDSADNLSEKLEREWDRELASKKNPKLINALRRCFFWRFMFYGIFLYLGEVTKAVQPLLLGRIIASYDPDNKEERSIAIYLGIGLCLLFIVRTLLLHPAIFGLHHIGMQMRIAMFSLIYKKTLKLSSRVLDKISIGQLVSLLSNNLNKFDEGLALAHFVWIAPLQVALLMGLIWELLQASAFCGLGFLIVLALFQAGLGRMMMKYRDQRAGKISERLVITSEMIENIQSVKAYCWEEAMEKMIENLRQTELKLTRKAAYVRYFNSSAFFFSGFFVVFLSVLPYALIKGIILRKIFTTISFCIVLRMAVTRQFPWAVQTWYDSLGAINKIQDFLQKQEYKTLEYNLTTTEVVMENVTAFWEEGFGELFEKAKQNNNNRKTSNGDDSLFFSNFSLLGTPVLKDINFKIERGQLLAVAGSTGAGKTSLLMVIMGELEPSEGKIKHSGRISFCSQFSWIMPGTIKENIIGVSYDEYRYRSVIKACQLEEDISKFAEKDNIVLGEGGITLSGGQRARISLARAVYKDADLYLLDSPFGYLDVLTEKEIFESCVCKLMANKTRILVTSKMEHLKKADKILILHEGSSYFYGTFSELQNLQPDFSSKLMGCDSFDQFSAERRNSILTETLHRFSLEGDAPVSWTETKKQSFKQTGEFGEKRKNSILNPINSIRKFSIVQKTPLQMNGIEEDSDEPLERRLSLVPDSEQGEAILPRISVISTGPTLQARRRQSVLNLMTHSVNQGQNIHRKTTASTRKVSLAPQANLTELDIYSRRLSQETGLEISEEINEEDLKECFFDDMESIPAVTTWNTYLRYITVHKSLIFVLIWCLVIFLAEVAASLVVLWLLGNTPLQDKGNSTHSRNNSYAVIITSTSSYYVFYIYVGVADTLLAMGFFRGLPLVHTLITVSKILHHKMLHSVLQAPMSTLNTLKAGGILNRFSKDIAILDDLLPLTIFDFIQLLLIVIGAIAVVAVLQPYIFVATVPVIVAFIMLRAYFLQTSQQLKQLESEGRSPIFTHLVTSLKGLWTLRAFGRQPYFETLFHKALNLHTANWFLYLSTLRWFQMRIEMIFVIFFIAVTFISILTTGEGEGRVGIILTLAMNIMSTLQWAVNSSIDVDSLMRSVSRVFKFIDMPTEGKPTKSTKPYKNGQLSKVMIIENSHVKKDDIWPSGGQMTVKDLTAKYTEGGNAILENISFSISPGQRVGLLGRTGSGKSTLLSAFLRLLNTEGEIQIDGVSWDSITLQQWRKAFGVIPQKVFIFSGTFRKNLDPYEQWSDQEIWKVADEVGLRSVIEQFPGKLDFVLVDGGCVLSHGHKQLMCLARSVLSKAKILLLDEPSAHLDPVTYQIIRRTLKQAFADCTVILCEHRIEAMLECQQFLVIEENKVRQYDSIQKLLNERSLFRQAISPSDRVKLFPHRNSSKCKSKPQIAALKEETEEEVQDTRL
MEASUREMENT NOTES: Cell Surface Expression-Horse Radish Peroxidase (CSE-HRP) Assay
Type: cell-based
CONDITIONS: with co-corrector (2 μM of 3-[(2R,4R)-4-({[1-(2,2-difluoro-1,3-benzodioxol-5-yl)cyclopropyl]carbonyl}amino)-7-methoxy-3,4-dihydro-2H-chromen-2-yl]benzoic acid); read-out: EC50 (with co-corrector)
pEC50: −log10 of the molar value.

COMPOUND: COc1ccc(C(C)(C)C)cc1CN[C@H]1[C@H](C(C)(C)C)[C@@H](C(=O)O)N(C(=O)c2cnn3ccccc23)[C@H]1c1ccccc1
pEC50: 5.00 to 6.00

COMPOUND: COc1ccc(C23CC(C2)C3)cc1CN[C@H]1[C@H](C(C)(C)C)[C@@H](C(=O)O)N(C(=O)OC(C)C)[C@H]1c1ccccc1
pEC50: > 6.00

COMPOUND: COc1ncc(-c2ccc(F)cc2F)cc1CN[C@H]1[C@H](C(C)(C)C)[C@@H](C(=O)O)N(C(=O)C2CCCCC2)[C@H]1c1ccccc1
pEC50: > 6.00

COMPOUND: COc1cccc(CN[C@@H]2[C@@H](C(C)(C)C)[C@H](C(=O)O)N(C(=O)C3CCCCC3)[C@@H]2c2ccccc2)n1 (racemic)
pEC50: 5.00 to 6.00

COMPOUND: COc1ccc(C(C)(C)C)cc1CN[C@H]1[C@H](C(C)(C)C)[C@@](C)(C(=O)O)N(C(=O)[C@H](OC)c2ccccc2)[C@H]1c1ccccc1
pEC50: 5.00 to 6.00

COMPOUND: COc1ccc(C2(C)CCC2)cc1CN[C@H]1[C@H](C(C)(C)C)[C@@H](C(=O)O)N(C(=O)[C@@H]2CCCCO2)[C@H]1c1ccccc1F
pEC50: 5.00 to 6.00

COMPOUND: COc1ncc(C2CC2)cc1CN[C@H]1[C@H](C(C)(C)C)[C@@H](C(=O)O)N(C(=O)C2CCCCC2)[C@H]1c1ccccc1C
pEC50: > 6.00

COMPOUND: COc1ccc(C(C)(C)C)cc1CN[C@H]1[C@H](C(C)(C)C)[C@@H](C(=O)O)N(C(=O)C2CCC(O)(C(F)(F)F)CC2)[C@H]1c1cccnc1N(C)C (some centres unmarked)
pEC50: 5.00 to 6.00

COMPOUND: COc1ccc(C(C)(C)C)cc1CN[C@H]1[C@H](C(C)(C)C)[C@@H](C(=O)O)N(C(=O)[C@@H]2C[C@H]3CC[C@@H]2O3)[C@H]1c1ccccc1C(C)C (relative stereo)
pEC50: > 6.00

COMPOUND: COc1ccc(C(C)(C)C)cc1CN[C@H]1[C@H](C(C)(C)C)[C@@H](C(=O)O)N(C(=O)c2ccc(Oc3ccccc3)cc2)[C@H]1c1cccnc1N(C)C
pEC50: > 6.00

COMPOUND: COc1ccc(C(C)(C)C)cc1CN[C@H]1[C@H](C(C)(C)C)[C@@H](C(=O)O)N(C(=O)CC2CCCCO2)[C@H]1c1ccccc1 (some centres unmarked)
pEC50: 5.00 to 6.00

COMPOUND: COc1cc(C(F)(F)F)ccc1CN[C@@H]1[C@@H](C(C)(C)C)[C@H](C(=O)O)N(C(=O)C2CCCCC2)[C@@H]1c1ccccc1 (racemic)
pEC50: > 6.00

COMPOUND: CC(C)(C)[C@@H]1[C@@H](Nc2cc(C#N)ccn2)[C@@H](c2ccccc2)N(C(=O)C2CCCCC2)[C@H]1C(=O)O (racemic)
pEC50: 5.00 to 6.00

COMPOUND: COc1ccc(C(C)(C)C)cc1CN[C@H]1[C@H](C(C)(C)C)[C@@H](C(=O)O)N(C(=O)C2(c3cccc(Cl)c3)COC2)[C@H]1c1ccccc1
pEC50: 5.00 to 6.00

COMPOUND: CC(C)(C)[C@@H]1[C@@H](Nc2nccc(C(F)(F)F)n2)[C@@H](c2ccccc2)N(C(=O)C2CCCCC2)[C@H]1C(=O)O (racemic)
pEC50: 5.00 to 6.00

COMPOUND: CC(C)(C)[C@H]1[C@H](NCc2cc3ccccc3nc2O)[C@H](c2ccccc2)N(C(=O)C2CCCCC2)[C@@H]1C(=O)O
pEC50: 5.00 to 6.00

COMPOUND: COc1ccc(C(C)(C)C)cc1CN[C@H]1[C@H](C(C)(C)C)[C@@H](C(=O)O)N(C(=O)C2CCCCO2)[C@H]1c1cccnc1OC(F)F (single isomer, unassigned)
pEC50: 5.00 to 6.00

COMPOUND: COc1ncc(C2CCC2)cc1CN[C@H]1[C@H](C(C)(C)C)[C@@H](C(=O)O)N(C(=O)[C@@H]2CCC[C@@H](F)C2)[C@H]1c1ccccc1
pEC50: > 6.00

COMPOUND: COc1ccncc1CN[C@@H]1[C@@H](C(C)(C)C)[C@H](C(=O)O)N(C(=O)C2CCCCC2)[C@@H]1c1ccccc1 (racemic)
pEC50: < 5.00

COMPOUND: COc1nnc(C2CCC2)cc1CN[C@H]1[C@H](C(C)(C)C)[C@@H](C(=O)O)N(C(=O)C2CCCCC2)[C@H]1c1ccccc1
pEC50: 5.00 to 6.00

COMPOUND: COc1nc(C(C)(C)C)ccc1CN[C@H]1[C@H](C(C)(C)C)[C@@H](C(=O)O)N(C(=O)OC(C)C)[C@H]1c1ccccc1
pEC50: 5.00 to 6.00

COMPOUND: COc1ccc(C(F)(F)F)cc1CN[C@H]1[C@H](C(C)(C)OC)[C@@H](C(=O)O)N(C(=O)C2CCCCC2)[C@H]1c1cccnc1N(C)C
pEC50: 5.00 to 6.00

COMPOUND: CC(C)(C)[C@@H]1[C@@H](NCc2ccccc2C#N)[C@@H](c2ccccc2)N(C(=O)C2CCCCC2)[C@H]1C(=O)O (racemic)
pEC50: < 5.00
